subjectOfTest: CDK4/Cyclin D1 (Homo sapiens, UniProt P11802)
Sequence (P11802 whole entry, species assumed): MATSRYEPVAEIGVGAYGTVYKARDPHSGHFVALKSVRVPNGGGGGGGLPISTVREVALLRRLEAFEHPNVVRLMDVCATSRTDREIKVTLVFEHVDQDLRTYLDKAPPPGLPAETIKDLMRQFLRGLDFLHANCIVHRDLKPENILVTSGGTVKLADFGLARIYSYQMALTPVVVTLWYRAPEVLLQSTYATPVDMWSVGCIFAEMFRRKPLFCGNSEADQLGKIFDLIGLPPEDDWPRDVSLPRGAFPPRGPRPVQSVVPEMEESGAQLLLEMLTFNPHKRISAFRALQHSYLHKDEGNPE
Sequence (P24385 whole entry partner, species assumed): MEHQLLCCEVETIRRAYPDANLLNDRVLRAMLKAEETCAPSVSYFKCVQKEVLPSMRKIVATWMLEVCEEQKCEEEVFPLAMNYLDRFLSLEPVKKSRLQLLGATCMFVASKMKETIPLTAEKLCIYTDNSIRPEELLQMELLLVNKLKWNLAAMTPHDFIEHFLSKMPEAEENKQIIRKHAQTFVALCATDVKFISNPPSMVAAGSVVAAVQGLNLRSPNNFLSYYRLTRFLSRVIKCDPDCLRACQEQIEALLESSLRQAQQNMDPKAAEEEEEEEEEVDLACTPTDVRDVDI
methodSummary: Kinase inhibition panel
conditionsUsed: 10 μM ATP
Procedure: The compounds in Table 4 were tested for the ability to inhibit the kinase activity of the listed protein kinases.
recordedMetric: pIC50
Note on pIC50: it is the negative log10 of concentration, concentration in mol/L.

Input line: Can you share its pIC50? I mean this molecule: `CN1CCN(c2ccc(Nc3ncc4cc(C#N)c(=O)n(C5CCCC5)c4n3)cc2)CC1`
Output line: 8.40

###

subjectOfTest: c-Kit (Homo sapiens, UniProt P10721)
Sequence (P10721 26-976): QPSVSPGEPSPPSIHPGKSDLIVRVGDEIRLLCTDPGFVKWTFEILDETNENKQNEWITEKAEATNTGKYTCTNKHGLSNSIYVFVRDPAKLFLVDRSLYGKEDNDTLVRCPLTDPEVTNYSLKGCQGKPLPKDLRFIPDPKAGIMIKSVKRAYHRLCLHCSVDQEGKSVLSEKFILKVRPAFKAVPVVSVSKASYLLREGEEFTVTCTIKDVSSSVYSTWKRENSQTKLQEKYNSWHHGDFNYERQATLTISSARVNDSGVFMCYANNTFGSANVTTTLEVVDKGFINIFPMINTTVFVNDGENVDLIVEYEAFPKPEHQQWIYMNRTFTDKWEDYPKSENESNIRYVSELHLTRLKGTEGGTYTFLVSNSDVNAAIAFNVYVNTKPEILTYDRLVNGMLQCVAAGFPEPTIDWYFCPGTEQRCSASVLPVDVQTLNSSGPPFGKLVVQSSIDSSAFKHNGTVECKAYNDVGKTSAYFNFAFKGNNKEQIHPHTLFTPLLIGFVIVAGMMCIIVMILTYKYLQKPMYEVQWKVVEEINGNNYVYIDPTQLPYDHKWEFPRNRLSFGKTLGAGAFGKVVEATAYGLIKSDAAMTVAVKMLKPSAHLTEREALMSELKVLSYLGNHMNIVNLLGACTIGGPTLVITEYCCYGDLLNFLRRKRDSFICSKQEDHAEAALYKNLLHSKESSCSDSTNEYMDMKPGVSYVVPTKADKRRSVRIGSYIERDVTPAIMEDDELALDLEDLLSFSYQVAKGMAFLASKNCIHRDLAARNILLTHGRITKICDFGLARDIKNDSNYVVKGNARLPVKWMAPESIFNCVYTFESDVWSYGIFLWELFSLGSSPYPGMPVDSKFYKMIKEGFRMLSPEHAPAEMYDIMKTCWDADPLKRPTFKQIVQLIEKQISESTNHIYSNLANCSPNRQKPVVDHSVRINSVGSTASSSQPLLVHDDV
recordedMetric: IC50

Input line: Can you share its IC50? I mean this molecule: CC(=O)c1c(C)c2cnc(Nc3ccc(N4CCNCC4)cn3)nc2n(C2CCCC2)c1=O [PD0332991, reference compound]
Output line: > 10 µM

###

subjectOfTest: FLT4NEGFR3 (Homo sapiens)
Sequence (P35916 25-1363): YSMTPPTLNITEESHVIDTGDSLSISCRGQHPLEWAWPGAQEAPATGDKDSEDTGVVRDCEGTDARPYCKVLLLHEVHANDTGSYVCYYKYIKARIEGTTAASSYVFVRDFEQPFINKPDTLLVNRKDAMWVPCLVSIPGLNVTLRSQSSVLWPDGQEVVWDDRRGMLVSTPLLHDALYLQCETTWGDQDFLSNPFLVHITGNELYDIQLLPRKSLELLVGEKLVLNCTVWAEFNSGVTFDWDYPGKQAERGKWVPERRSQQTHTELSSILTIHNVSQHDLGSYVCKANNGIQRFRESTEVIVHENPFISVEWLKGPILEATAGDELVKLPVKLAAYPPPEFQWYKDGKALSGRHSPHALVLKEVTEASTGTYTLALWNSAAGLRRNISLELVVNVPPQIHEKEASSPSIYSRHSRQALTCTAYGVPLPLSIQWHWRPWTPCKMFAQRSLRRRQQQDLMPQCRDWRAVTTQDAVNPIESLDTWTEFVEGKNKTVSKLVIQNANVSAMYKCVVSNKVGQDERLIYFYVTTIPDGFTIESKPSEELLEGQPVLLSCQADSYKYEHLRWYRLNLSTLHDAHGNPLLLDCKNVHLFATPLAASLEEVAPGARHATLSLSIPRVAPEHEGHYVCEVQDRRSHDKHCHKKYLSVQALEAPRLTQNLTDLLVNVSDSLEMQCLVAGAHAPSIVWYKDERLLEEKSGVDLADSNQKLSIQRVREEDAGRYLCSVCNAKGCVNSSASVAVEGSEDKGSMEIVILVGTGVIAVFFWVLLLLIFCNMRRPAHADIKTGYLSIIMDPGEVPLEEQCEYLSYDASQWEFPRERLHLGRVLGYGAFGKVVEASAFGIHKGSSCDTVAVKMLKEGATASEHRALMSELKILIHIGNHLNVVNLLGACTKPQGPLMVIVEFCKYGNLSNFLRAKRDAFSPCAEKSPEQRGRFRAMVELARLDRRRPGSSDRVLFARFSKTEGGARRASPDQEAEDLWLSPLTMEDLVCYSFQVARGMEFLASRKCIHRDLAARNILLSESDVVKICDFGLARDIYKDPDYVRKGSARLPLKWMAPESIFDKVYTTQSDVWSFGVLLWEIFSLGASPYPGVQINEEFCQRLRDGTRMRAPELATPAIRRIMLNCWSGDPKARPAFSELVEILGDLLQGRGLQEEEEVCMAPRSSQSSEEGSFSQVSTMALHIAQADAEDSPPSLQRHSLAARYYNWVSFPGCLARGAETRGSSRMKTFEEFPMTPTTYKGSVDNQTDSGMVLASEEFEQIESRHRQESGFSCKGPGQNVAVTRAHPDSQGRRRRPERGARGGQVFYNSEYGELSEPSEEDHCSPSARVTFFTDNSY
recordedMetric: IC50 (nM)
Please give a number only; it is taken to be in nM.

Input line: Can you share its IC50? I mean this molecule: CN1CCN(c2ccc(Nc3ncc4cc(C#N)c(=O)n(C5CCCC5)c4n3)cc2)CC1 [Compound 12]
Output line: 63.5

###

subjectOfTest: CDK6/cyclinD3 (Homo sapiens, UniProt Q00534)
methodSummary: Kinase inhibition panel
conditionsUsed: 10 μM ATP
recordedMetric: IC50 (nM)
Please give a number only; it is taken to be in nM.

Input line: # returns recorded IC50 (system: CDK6/cyclinD3 (Homo sapiens, UniProt Q00534)) for `CN1CCN(c2ccc(Nc3ncc4cc(C#N)c(=O)n(C5CCCC5)c4n3)cc2)CC1`
Output line: 38.7

###

subjectOfTest: UniProt:O60285
Sequence (O60285 1-661): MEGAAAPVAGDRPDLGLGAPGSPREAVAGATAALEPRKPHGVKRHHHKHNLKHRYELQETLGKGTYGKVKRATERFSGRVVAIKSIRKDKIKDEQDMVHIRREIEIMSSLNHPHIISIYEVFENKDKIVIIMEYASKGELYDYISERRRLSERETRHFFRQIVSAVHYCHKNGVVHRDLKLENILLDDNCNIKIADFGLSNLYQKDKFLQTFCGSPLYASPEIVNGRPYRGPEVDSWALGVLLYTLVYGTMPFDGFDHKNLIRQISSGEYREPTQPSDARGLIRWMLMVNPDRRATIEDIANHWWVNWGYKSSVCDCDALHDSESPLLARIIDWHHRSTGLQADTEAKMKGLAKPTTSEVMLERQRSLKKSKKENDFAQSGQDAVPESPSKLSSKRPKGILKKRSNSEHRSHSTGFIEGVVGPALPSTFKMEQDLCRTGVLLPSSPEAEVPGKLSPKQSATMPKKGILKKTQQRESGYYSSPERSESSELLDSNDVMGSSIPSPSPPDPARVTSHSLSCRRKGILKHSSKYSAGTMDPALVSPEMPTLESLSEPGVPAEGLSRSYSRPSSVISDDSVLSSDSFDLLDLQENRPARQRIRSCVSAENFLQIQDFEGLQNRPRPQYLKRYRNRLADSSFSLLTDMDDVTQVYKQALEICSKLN
recordedMetric: IC50

[
  {
    "compound": "COc1ccc(Nc2ncc3ccc(=O)n(C4CCCC4)c3n2)cc1OC [Comp. Ex. 4, reference compound]",
    "subjectOfTest": "UniProt:O60285",
    "IC50": "> 1000 nM"
  },
  {
    "compound": "CN1CCN(c2ccc(Nc3ncc4cc(S(=O)(=O)c5ccc(Cl)cc5)c(=O)n(C5CCCC5)c4n3)cc2)CC1 [Comp. Ex. 2, reference compound]",
    "subjectOfTest": "UniProt:O60285",
    "IC50": "> 10000 nM"
  }
]

Input line: Can you share its IC50? I mean this compound: CN1CCN(c2ccc(Nc3ncc4cc(S(C)(=O)=O)c(=O)n(C5CCCC5)c4n3)cc2)CC1 [Comp. Ex. 1, reference compound]
Output line: > 10000 nM

Input line: Please give the result for COc1ccc(Nc2ncc3ccc(=O)n(C4CCCC4)c3n2)c(OC)c1 [Comp. Ex. 5, reference compound] too.
Output line: > 5000 nM

Input line: Please give the result for `CN1CCN(c2ccc(Nc3ncc4cc(C#N)c(=O)n(C5CCCC5)c4n3)cc2)CC1` too.
Output line: 27.3 nM

Input line: Please give the result for `CN1CCN(c2ccc(Nc3ncc4cc(C#N)c(=O)n(C5CCCCC5)c4n3)cc2)CC1` too.
Output line: 43.4 nM

###

subjectOfTest: YES/YES1 (Homo sapiens, UniProt P07947)
Sequence (P07947 whole entry): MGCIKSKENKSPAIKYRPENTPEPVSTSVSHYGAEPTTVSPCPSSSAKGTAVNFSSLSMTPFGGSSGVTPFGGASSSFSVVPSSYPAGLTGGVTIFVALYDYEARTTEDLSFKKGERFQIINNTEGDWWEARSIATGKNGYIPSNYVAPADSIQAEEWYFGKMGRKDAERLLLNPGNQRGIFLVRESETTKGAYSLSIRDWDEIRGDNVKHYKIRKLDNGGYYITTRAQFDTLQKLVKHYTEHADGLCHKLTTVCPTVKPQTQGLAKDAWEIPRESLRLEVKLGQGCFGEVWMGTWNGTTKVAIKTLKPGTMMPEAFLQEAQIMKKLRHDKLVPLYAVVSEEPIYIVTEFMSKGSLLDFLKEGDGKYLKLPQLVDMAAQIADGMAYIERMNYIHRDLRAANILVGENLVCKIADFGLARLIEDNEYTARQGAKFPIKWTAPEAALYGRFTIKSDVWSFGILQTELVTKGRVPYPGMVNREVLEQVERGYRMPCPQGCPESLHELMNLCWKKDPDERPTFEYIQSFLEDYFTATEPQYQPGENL
methodSummary: Kinase inhibition panel
conditionsUsed: 10 μM ATP
recordedMetric: IC50
State the value with its unit after it.

Input line: # returns recorded IC50 (system: YES/YES1 (Homo sapiens, UniProt P07947)) for `CN1CCN(c2ccc(Nc3ncc4cc(C#N)c(=O)n(C5CCCC5)c4n3)cc2)CC1`
Output line: 38.1 nM

###

subjectOfTest: CDK5/p25 (Homo sapiens, UniProt Q00535)
Sequence (Q00535 whole entry, species assumed): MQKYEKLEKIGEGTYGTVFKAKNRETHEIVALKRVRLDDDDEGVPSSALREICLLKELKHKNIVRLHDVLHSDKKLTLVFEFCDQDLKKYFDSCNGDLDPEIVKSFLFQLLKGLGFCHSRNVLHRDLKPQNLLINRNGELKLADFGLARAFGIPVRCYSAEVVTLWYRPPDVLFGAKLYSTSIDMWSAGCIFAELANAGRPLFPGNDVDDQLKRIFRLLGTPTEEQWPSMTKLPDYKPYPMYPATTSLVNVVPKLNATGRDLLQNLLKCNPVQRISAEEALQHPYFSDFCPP
Sequence (Q15078 99-307 partner limits assumed, species assumed): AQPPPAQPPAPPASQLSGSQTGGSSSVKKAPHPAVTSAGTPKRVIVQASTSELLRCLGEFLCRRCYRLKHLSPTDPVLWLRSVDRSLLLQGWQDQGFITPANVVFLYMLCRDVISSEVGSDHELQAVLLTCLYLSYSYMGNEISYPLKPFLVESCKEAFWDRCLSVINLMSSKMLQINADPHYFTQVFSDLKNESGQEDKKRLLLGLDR
methodSummary: Kinase inhibition panel
conditionsUsed: 10 μM ATP
recordedMetric: IC50
State the value with its unit after it.

Input line: # returns recorded IC50 (system: CDK5/p25 (Homo sapiens, UniProt Q00535)) for `CN1CCN(c2ccc(Nc3ncc4cc(C#N)c(=O)n(C5CCCC5)c4n3)cc2)CC1`
Output line: 264 nM

###

subjectOfTest: FGFR2 (Homo sapiens)
Sequence (P21802 22-821, species assumed): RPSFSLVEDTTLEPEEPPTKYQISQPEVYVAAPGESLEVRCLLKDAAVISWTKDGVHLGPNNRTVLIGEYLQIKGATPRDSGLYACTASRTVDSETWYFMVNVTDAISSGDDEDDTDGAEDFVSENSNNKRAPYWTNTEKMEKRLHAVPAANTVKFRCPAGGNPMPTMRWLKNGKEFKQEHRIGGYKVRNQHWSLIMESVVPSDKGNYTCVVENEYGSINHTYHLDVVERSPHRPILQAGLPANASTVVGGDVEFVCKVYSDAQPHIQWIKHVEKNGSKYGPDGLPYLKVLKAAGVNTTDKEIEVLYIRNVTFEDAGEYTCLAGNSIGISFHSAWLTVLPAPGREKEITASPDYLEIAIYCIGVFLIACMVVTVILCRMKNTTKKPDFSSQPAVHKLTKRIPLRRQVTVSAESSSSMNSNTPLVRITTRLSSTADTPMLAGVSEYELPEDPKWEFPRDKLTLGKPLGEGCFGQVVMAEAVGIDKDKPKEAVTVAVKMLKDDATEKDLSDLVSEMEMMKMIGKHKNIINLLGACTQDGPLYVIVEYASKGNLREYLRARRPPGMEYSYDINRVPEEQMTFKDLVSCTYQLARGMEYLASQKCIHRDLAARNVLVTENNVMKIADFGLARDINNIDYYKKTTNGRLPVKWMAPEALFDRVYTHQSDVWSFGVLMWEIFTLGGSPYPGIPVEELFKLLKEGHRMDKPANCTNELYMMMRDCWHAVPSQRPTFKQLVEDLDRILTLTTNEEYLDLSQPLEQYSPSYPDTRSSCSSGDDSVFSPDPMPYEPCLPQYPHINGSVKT
recordedMetric: IC50
State the value with its unit after it.

Input line: Can you share its IC50? I mean this compound: `CN1CCN(c2ccc(Nc3ncc4cc(C#N)c(=O)n(C5CCCC5)c4n3)cc2)CC1`
Output line: 54.8 nM

###

subjectOfTest: LOK/STK10 (Homo sapiens)
methodSummary: Kinase inhibition panel
conditionsUsed: 10 μM ATP
recordedMetric: IC50 (µM)
Please give a number only; it is taken to be in µM.

Input line: Can you share its IC50? I mean this compound: `CN1CCN(c2ccc(Nc3ncc4cc(C#N)c(=O)n(C5CCCC5)c4n3)cc2)CC1`
Output line: 0.181

###

subjectOfTest: FLT3 (Homo sapiens)
Sequence (P36888 27-993): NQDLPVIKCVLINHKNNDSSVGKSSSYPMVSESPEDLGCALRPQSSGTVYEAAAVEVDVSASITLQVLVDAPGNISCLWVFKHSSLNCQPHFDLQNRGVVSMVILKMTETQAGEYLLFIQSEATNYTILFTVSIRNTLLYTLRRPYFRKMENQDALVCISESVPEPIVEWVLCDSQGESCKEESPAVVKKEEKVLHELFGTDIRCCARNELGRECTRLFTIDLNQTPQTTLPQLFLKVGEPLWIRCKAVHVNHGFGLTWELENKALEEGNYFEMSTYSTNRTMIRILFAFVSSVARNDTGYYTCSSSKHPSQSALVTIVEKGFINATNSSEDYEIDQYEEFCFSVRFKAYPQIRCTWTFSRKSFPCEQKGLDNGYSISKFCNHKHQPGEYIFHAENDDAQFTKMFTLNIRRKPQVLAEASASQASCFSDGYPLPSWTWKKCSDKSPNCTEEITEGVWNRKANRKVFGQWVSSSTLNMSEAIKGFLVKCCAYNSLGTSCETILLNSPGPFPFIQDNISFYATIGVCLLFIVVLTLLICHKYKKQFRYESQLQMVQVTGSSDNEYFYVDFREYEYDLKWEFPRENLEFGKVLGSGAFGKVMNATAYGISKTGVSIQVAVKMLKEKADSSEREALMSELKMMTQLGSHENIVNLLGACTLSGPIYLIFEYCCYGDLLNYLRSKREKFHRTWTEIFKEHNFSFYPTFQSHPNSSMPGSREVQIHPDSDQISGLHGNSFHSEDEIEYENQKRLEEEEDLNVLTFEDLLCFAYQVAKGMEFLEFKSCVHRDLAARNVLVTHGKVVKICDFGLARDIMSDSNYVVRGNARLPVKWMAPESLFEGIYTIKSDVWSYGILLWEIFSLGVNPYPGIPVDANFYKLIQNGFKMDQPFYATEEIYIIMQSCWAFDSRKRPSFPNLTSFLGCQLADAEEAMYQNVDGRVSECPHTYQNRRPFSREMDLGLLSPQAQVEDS
recordedMetric: pIC50
Note on pIC50: it is the negative log10 of concentration, concentration in mol/L.

Input line: # returns recorded pIC50 (system: FLT3 (Homo sapiens)) for CN1CCN(c2ccc(Nc3ncc4cc(C#N)c(=O)n(C5CCCC5)c4n3)cc2)CC1 [Compound 12]
Output line: 7.87

###

subjectOfTest: UniProt:P54760
Sequence (P54760 16-987): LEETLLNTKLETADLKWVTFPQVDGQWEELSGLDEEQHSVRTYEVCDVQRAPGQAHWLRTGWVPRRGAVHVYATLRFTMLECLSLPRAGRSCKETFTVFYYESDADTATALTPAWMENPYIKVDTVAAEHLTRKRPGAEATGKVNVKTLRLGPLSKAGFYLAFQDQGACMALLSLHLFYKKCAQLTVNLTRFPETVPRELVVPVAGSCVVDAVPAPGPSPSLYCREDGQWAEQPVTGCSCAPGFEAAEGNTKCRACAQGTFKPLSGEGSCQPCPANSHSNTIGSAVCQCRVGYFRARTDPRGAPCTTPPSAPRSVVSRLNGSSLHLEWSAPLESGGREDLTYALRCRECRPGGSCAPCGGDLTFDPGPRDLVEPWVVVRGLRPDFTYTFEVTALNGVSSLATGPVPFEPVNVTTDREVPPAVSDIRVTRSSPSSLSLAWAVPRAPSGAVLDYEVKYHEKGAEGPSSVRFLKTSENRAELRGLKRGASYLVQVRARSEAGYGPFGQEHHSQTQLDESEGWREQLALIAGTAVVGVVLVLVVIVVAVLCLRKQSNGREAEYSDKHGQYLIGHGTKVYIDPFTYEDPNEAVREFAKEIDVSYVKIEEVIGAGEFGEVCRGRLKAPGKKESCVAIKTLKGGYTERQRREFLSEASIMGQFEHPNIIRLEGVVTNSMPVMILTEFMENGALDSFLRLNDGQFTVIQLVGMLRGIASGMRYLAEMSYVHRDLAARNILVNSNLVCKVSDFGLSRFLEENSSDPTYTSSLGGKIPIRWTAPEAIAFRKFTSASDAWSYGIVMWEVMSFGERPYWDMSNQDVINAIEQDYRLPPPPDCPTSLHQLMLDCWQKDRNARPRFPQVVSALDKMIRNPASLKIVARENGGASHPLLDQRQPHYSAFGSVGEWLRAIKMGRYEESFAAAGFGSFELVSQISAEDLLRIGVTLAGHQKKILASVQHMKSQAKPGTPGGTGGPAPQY
recordedMetric: IC50 (nM)
Please give a number only; it is taken to be in nM.

Input line: Can you share its IC50? I mean this compound: `CN1CCN(c2ccc(Nc3ncc4cc(C#N)c(=O)n(C5CCCC5)c4n3)cc2)CC1`
Output line: 120
